These measurements were taken from patent US20250381223A1.

ASSAY_SYSTEM: T1, recombinant Human/Cynomolgus CD28 (N-6His) (Human/Cynomolgus, UniProt P10747 19-152)
T1 construct: Bought protein; also called antigen CD28; not shown: 6His tag at the N-terminus (N-6His)
ASSAY_COMMENT: ELISA; plate coated with CD28 (N-6His) 2 µg/mL; HRP-anti-hFc
MEASURED_ATTRIBUTE: EC50 (mg/L)
Please respond with the number in mg/L and leave the unit unwritten.

- huVH2huVL2 (antibody, human IgG1, kappa, V domains shown) VH: QVQLQESGPGLVKPSETLSITCTVSGFSLSDYGVHWVRQPPGKGLEWLGVIWAGGGTNYNSALMSRKTISKDTSKNQVSLKMSSLTAADTAVYYCARDKGYSYYYSMDYWGQGTTVTVSS VL: DIQLTQSPSSLSASVGDRVTITCRASESVEYYVTSLMQWYQQKPGKAPKLLIFAASNVESGVPSRFSGSGSGTNFTLTISSVQPEDFATYFCQQSRKVPYTFGGGTKLEIKR: 0.0126

# ---- query binder ----
Find the recorded EC50 belonging to huVH1huVL2 (antibody, human IgG1, kappa, V domains shown) VH: QVKLQESGPGLVKPSETLSITCTVSGFSLSDYGVHWVRQSPGKGLEWLGVIWAGGGTNYNSALMSRKTISKDNSKSQVFLKMSSLTAADTAVYYCARDKGYSYYYSMDYWGQGTTVTVSS VL: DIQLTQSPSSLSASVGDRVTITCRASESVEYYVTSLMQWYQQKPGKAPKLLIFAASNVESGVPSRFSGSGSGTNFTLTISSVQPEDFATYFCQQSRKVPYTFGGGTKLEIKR and report it.
0.0125
